TARGET OF ASSAY: human plasma kallikrein (human, UniProt P03952 20-390; P03952 391-638)
Sequence (P03952 20-390, chain 1 of 2): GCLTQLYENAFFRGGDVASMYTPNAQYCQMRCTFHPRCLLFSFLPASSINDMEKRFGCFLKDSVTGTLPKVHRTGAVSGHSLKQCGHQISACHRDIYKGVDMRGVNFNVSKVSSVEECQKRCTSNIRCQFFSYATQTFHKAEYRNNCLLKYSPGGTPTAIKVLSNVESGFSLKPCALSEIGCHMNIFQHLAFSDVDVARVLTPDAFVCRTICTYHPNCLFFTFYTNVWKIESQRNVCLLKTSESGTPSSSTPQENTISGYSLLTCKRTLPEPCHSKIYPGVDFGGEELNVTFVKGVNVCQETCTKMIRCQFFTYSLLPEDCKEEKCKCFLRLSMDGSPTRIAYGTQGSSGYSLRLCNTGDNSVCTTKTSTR
Sequence (P03952 391-638, chain 2 of 2): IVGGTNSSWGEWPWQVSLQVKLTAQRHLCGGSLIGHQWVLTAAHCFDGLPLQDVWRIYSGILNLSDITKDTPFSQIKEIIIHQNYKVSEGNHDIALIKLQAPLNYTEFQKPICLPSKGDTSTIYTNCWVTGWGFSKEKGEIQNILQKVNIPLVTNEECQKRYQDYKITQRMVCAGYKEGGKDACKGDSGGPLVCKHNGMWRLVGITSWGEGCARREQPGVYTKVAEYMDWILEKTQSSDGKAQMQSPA
METHOD NOTES: cell-based or functional assay
MEASURED METRIC: % inhibition at 10 nM (%)

binder="M206-A06 (Fab, V domains shown) VH: EVQLLESGGGLVQPGGSLRLSCAASGFTFSNYMMGWVRQAPGKGLQWVSSISPSGGLTKYADSVKGRFTISRDNSKNTLYLQMNSLRAEDTAVYYCARVARGIAARSRTSYFDYWGQGTLVTVSS VL: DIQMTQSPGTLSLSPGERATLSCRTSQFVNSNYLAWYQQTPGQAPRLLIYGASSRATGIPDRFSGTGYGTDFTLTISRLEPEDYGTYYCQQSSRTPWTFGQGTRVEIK" reported_measurement=93
binder="M209-C02 (Fab, V domains shown) VH: EVQLLESGGGLVQPGGSLRLSCAASGFTFSHYLMTWVRQAPGKGLEWVSYISPSGGHTIYADSVKGRFTISRDNSKNTLYLQMNSLRAEDTAVYYCARVARGIAYRRRTSYFDYWGQGTLVTVSS VL: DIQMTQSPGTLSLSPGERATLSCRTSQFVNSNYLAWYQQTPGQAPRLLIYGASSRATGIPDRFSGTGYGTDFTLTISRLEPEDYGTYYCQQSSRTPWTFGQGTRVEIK" reported_measurement=86.8
